The values you see were collected from patent EP1981504B1.

Test system: M17-SYNwt cells
Assay: α-synuclein cytotoxicity assay (LDH leakage from paraquat-treated α-synuclein over-expressing neuroblastoma cells)
Type: cell-based, human
Conditions: Homo sapiens, Neuroblastoma cell; paraquat 32 mM, 40 hours, LDH release; 10 point curves in duplicate
Just a reminder that ties go to not met: only EC50 strictly below 2 µg/mL counts as met.

Request: Does CC1CN(c2nc(Cc3ccc(F)cc3)ns2)CCN1C(=O)c1ccccc1Br (centres unmarked) have EC50 strictly under 2 µg/mL?
Response: met

Request: Please state whether EC50 is below 2 µg/mL for "COc1ccccc1S(=O)(=O)N1CCN(c2nc(Cc3ccc(F)cc3)ns2)CC1"
Response: met

Request: Does this compound meet the criterion EC50 < 2 µg/mL? "Clc1ccc(Cc2nsc(N3CCN(C/C=C/c4ccccc4)CC3)n2)cc1"
Response: met

Request: Does CCc1ccc(NC(=O)N2CCN(c3nc(Cc4ccc(F)cc4)ns3)CC2C)cc1 (centres unmarked) have EC50 strictly under 2 µg/mL?
Response: met

Request: Hi there! Is EC50 for CC1CN(c2nc(Cc3ccc(Cl)cc3)ns2)CCN1S(=O)(=O)c1cccc2ccccc12 (centres unmarked) below 2 µg/mL, do you know?
Response: met

Request: A record lists "O=C(c1ccccc1F)N1CCN(c2nc(Cc3ccc(Cl)cc3)ns2)CC1" . Is its EC50 below 2 µg/mL?
Response: not met

Request: Problem: For the compound "O=C(Cc1ccccc1)N1CCN(c2nc(Cc3ccc(F)cc3)ns2)CC1" , is EC50 under 2 µg/mL?
Response: met

Request: In plain terms, does CCc1ccc(C(=O)N2CCN(c3nc(Cc4cccc(OC)c4)ns3)CC2C)cc1 (centres unmarked) come in under 2 µg/mL for EC50?
Response: met

Request: Input "Cc1ccc(Cc2nsc(N3CCN(S(=O)(=O)C(C)C)CC3)n2)cc1" ; condition: EC50 strictly below 2 µg/mL. Does it hold?
Response: not met

Request: # strict comparison: is reported EC50 < 2 µg/mL? input = Cc1ccc(Cc2nsc(N3CCN(S(=O)(=O)c4ccc5ccccc5c4)C(C)C3)n2)cc1 (centres unmarked)
Response: met

Request: Quick check: EC50 of "CCS(=O)(=O)N1CCN(c2nc(Cc3ccc(Cl)cc3)ns2)CC1" under 2 µg/mL?
Response: not met

Request: Dear reviewer, please state whether Cc1ccc(Cc2nsc(N3CCN(C(=O)c4ccc5c(c4)OCO5)C(C)C3)n2)cc1 (centres unmarked) has EC50 strictly beneath 2 µg/mL.
Response: not met

Request: Is the reported EC50 for "CCOc1ccc(S(=O)(=O)N2CCN(c3nc(Cc4ccc(F)cc4)ns3)CC2)cc1" strictly below 2 µg/mL?
Response: met

Request: Quick check: EC50 of "O=C(Cc1ccc(F)cc1)N1CCN(c2nc(Cc3ccc(F)cc3)ns2)CC1" under 2 µg/mL?
Response: met

Request: Please check: EC50 for Cc1ccc(Cc2nsc(N3CCN(C(=O)c4cccc(F)c4)C(C)C3)n2)cc1 (centres unmarked) , strictly under 2 µg/mL or not?
Response: met

Request: Just wondering, is EC50 of "Cc1ccc(Cc2nsc(N3CCN(C/C=C/c4ccccc4)CC3)n2)cc1" below 2 µg/mL?
Response: met

Request: Find out if reported EC50 for CCOc1ccc(NC(=O)N2CCN(c3nc(Cc4ccc(F)cc4)ns3)CC2C)cc1 (centres unmarked) is less than 2 µg/mL
Response: met

Request: In the record for "COc1ccc(S(=O)(=O)N2CCN(c3nc(Cc4ccccc4C)ns3)CC2)cc1" , is EC50 less than 2 µg/mL?
Response: met

Request: Report whether reported EC50 is lower than 2 µg/mL (strictly) for "Cc1ccc(Cc2nsc(N3CCN(C(=O)c4ccc(Cl)cc4)CC3)n2)cc1"
Response: met

Request: Does the reported EC50 of CC1CN(c2nc(Cc3ccc(F)cc3)ns2)CCN1C(=O)c1ccc(Br)cc1 (centres unmarked) stay below 2 µg/mL?
Response: met

Request: Does this compound meet the criterion EC50 < 2 µg/mL? COc1ccc(CC(=O)N2CCN(c3nc(Cc4ccc(F)cc4)ns3)CC2C)cc1 (centres unmarked)
Response: met

Request: Say whether its EC50 is strictly beneath 2 µg/mL. Entry: CC(=O)Nc1ccc(S(=O)(=O)N2CCN(c3nc(Cc4ccc(C)cc4)ns3)CC2C)cc1 (centres unmarked)
Response: met

Request: Just wondering, is EC50 of Cc1cccc(C)c1NC(=O)N1CCN(c2nc(Cc3ccc(F)cc3)ns2)CC1C (centres unmarked) below 2 µg/mL?
Response: met

Request: Please let me know if "CCCCS(=O)(=O)N1CCN(c2nc(Cc3ccc(Cl)cc3)ns2)CC1" shows EC50 below 2 µg/mL.
Response: met

Request: Answer whether the compound CC1CN(c2nc(Cc3ccccc3)ns2)CCN1C(=O)c1ccc(F)cc1 (centres unmarked) has EC50 strictly less than 2 µg/mL
Response: met

Request: hey, is EC50 for "COc1ccc(S(=O)(=O)N2CCN(c3nc(Cc4cccc(OC)c4)ns3)CC2)cc1" lower than 2 µg/mL or not?
Response: met
